Data provenance is PubChem BioAssay (NCATS).

# run.description: Primary qHTS to identify inhibitors of SARS-CoV-2 cell entry (AID 1645846); further: nearly all actives have a fitted effect of over 45% in size
# condition.info: SARS-CoV-2 pseudovirus cell entry assay, luminescence; at 57.1 µM (top of the series) unless noted
Results filed as inconclusive are left out.
property.name: activity change, negative = inhibition (%)
Dear colleague, please return just the value in %, with no unit written.

Consider the following illustrative entries.
O=C(O)C[C@H]1CCc2c1[nH]c1ccc(OCc3ccc(C4CCCC4)c(C(F)(F)F)c3)cc21 | -95.5
O=S(=O)(NCCNC/C=C/c1ccc(Br)cc1)c1cccc2cnccc12 | -22.5

[Q] # query: activity change, negative = inhibition of entry COc1ccc(-c2c(C)nn3c(NCCN4CCOCC4)cc(C)nc23)cc1OC
[A] 3.31

[Q] # query: activity change, negative = inhibition of entry CC(=O)[C@@]1(O)CC[C@H]2[C@@H]3CCC4=CC(=O)CC[C@@H]4[C@H]3CC[C@@]21C
[A] -22.5

[Q] # query: activity change, negative = inhibition of entry CC(C)(C)CC(=O)OCC(=O)[C@@]12OC(C)(C)O[C@@H]1C[C@H]1[C@@H]3CCC4=CC(=O)C=C[C@]4(C)[C@@]3(F)[C@@H](O)C[C@@]12C
[A] -18.4

[Q] # query: activity change, negative = inhibition of entry CNC(=O)C[C@@H](N)C(=O)N[C@@H](C(=O)N[C@@H]1C(=O)N2[C@@H]1SC(C)(C)[C@@H]2C(=O)O)c1ccc(O)cc1
[A] -19.8

[Q] # query: activity change, negative = inhibition of entry CC(C)CCCC(C)NC(C)C (stereo not given)
[A] -25.3

###

# run.description: qHTS drug screen for cell cycle checkpoint inhibitors in PARPi-resistant BRCA-mutant ovarian cancer cell lines. (AID 1963452)
# condition.info: PEO1/OlaR viability, CellTiter-Glo luminescence, 96 h; stronger effect = lower value
property.name: Z-AUC
No unit in the answer, please; the number alone is enough.

Cc1c(N)nc([C@H](CC(N)=O)NC[C@@H](N)C(N)=O)nc1C(=O)N[C@H](C(=O)N[C@@H](C)[C@H](O)[C@@H](C)C(=O)N[C@@H](C(=O)NCCc1nc(-c2nc(C(=O)NCCC[S+](C)C)cs2)cs1)[C@@H](C)O)C(O[C@H]1O[C@H](CO)[C@H](O)[C@@H](O)[C@H]1O[C@H]1O[C@H](CO)[C@@H](O)[C@H](OC(N)=O)[C@@H]1O)c1cnc[nH]1 (some centres not stated) | -0.673

[Q] # query: Z-AUC of entry CC(=O)OC[C@H]1O[C@@H]([S-])[C@H](OC(C)=O)[C@@H](OC(C)=O)[C@@H]1OC(C)=O.CC[PH+](CC)CC.[Au]
[A] -0.477

###

# run.description: Primary qHTS for inhibitors of MERS-S pseudo-typed particle cell entry (AID 1479149); further: nearly all actives have a fitted effect of over 60% in size
# condition.info: MERS-S pseudotyped particle entry, luciferase; series mostly up to 57.1 µM
Inconclusive results are not listed. Active and inactive are the calls of the source. The call rests on the fitted dose curve.
Outcome (select one): 1 for active, 0 for inactive

Some entries whose results are on file:
CCCCCC(O)/C=C/[C@@H]1C(CCCCCCC(=O)O)C(=O)C[C@@H]1O (stereo partly specified) | 0
OC[C@H]1O[C@@H](OCCc2ccc(O)cc2)[C@H](O)[C@@H](O)[C@@H]1O | 0
O=C(O)CSc1nnc(Br)n1-c1ccc(C2CC2)c2ccccc12 | 0
NS(=O)(=O)c1ccc(-n2nc(C(F)(F)F)cc2-c2ccc(F)cc2)cc1 | 0

[Q] Just curious, what result did O=C(O)C(O)[C@H](O)[C@H](O)[C@H](O)[C@H](O)CO (stereo partly specified) get here?
[A] 0

[Q] Just curious, what result did CCCCC(CC)COC(=O)c1ccc(Nc2nc(Nc3ccc(C(=O)OCC(CC)CCCC)cc3)nc(Nc3ccc(C(=O)OCC(CC)CCCC)cc3)n2)cc1 (stereo unspecified) get here?
[A] 0
